Test system: NCI/ADR-RES
Assay: NCI tumour cell line growth inhibition, 48 h
Active and inactive are the calls of the source. Cut-off read from the data, not from the text of the source: active = GI50 up to about 1.1 µM and inactive = higher.
I'd appreciate it if you could supply GI50 values for the items below.

Sample records with GI50:
O=C(c1ccncc1)C1C(=O)c2ccccc2C1C1(O)c2ccccc2CC1C(O)c1ccncc1 (centres undefined) | 46.6 µM (inactive)
COc1cc(C(=O)N(C(=O)N2CCCCC2)c2ccccc2)cc(OC)c1OC | > 100 µM (inactive)
C=CCn1c(N)c(C#N)c(C#N)c1-c1ccccc1 | > 100 µM (inactive)
COc1ccc(C2SCC(=O)N2NC(=O)c2ccc(NC(C)=O)cc2)cc1 (centres undefined) | > 100 µM (inactive)
CC(=O)O[C@H]1C(=O)[C@@]2(C)[C@H]([C@H](OC(=O)c3ccccc3)[C@]3(O)C[C@H](OC(=O)[C@H](O)[C@@H](NC(=O)c4ccccc4)c4ccccc4)C(C)=C1C3(C)C)[C@]1(OC(C)=O)CO[C@@H]1C[C@@H]2O [PACLITAXEL] | 3.11 µM (inactive)

I would be grateful if you could provide GI50 for each of the following entries.
1. O=C(CCc1ccccc1)On1c(-c2ccccc2)nc2ccccc2c1=S
2. Cc1cc(=O)nc(Sc2ccc([N+](=O)[O-])cc2[N+](=O)[O-])[nH]1
3. CC1OC2=N[C@@H]1C(=O)N[C@@H](Cc1ccccc1)C1=N[C@H](C(=O)N[C@@H](Cc3ccccc3)C3=N[C@H](C(=O)N[C@H]2Cc2ccccc2)C(C)O3)C(C)O1 (some centres undefined)
4. CSc1nncc2[nH]cnc12

A.
["4.08 µM (inactive)", "30.4 µM (inactive)", "44.6 µM (inactive)", "> 100 µM (inactive)"]

---

Test system: MDA-MB-435
Experiment: NCI tumour cell line growth inhibition, 48 h
Activity calls are given as the source filed them. Cut-off read from the data, not from the text of the source: active = GI50 up to about 1.1 µM and inactive = higher.
Write down the outcome that applies. Available outcomes: active, inactive

Example cases with answers are listed next.
COc1c2occc2c(OC)c2c(=O)c(S(=O)(=O)NC(=O)Nc3ccc(Cl)cc3)coc12 | inactive
COc1ccc(/N=N/C(=O)NC(CC(C)C)C(=O)NC(Cc2ccccc2)C(=O)O)cc1 (stereo not drawn) | active

Q. Dear colleague, could you share the recorded outcome for "COc1ccc(C(=O)c2sc(Nc3ccccc3)nc2N)cc1" when you have a moment?
A. inactive

Q. Called result for "CSc1cc(-c2cccs2)sc1-c1cc(SC)c(-c2sc(-c3sc(-c4cccs4)cc3SC)cc2SC)s1"
A. inactive

Q. Called result for CC1OC(OC2C(O[C@@H]3C[C@@H]4CC[C@@H]5[C@H](CC[C@]6(C)C7C(C[C@@H]56)O[C@]5(CC[C@@H](C)CO5)[C@H]7C)[C@@]4(C)C[C@H]3O)OC(CO)C(O)C2O)C(O)C(O)C1O (stereo partly drawn)
A. inactive

---

Test system: CCRF-CEM
Assay: NCI tumour cell line growth inhibition, 48 h
Active and inactive are the calls of the source. Rule as the data show it: active = GI50 up to about 1.1 µM and inactive = higher.
VALUE_KIND: GI50

O=C1NCN(c2ccccc2)C12CCN(CCCSc1ccc(F)cc1)CC2 | 7 µM (inactive)

For each entry beneath this line, provide reported GI50.
1. Cc1cccc2c1C(=O)OC2(C)c1cccc2ccccc12 (stereo not drawn)
2. C=CCOC(=O)C1CCC(=O)N1C(=O)C(Cl)Cl (stereo not drawn)

A.
["17.5 µM (inactive)", "> 100 µM (inactive)"]
